target: YWHAB (UniProt P31946); assay: log2 fold change, soluble protein after heating vs DMSO (PISA); higher = thermal stabilisation; K562 cells, 10 uM, 30 min; active = over 0.2 and 3.5 SD of the protein, either way, in both replicates (recomputed)
Sequence (P31946 whole entry, looked up): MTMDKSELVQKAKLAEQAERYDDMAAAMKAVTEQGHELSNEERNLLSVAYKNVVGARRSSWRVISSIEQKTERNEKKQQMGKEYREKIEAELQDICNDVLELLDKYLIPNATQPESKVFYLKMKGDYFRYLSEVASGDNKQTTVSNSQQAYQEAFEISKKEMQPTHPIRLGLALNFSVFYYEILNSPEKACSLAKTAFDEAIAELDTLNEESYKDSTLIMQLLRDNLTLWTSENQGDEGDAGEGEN
The full data set covers some 7,900 targets. This sample favours those with a hit. About 0.6% of all pairs of compound and target were hits.
Returns satisfied if the recorded log2 fold change is greater than or equal to -0.02, and not satisfied otherwise.

molecule=Cc1ccc(Sc2cncc3sc(C(N)=O)cc23)cc1 assigned_category="not satisfied"
molecule=CS(=O)(=O)CCNCc1ccc(-c2ccc3ncnc(Nc4ccc(OCc5cccc(F)c5)c(Cl)c4)c3c2)o1 assigned_category=satisfied
molecule=CO[C@H]1C[C@@H]2CC[C@@H](C)[C@@](O)(O2)C(=O)C(=O)N2CCCC[C@H]2C(=O)O[C@H]([C@H](C)C[C@@H]2CC[C@H](n3cnnn3)[C@H](OC)C2)CC(=O)[C@H](C)/C=C(\C)[C@@H](O)[C@@H](OC)C(=O)[C@H](C)C[C@H](C)/C=C/C=C/C=C/1C assigned_category=satisfied
molecule=CC[C@@H]1C(=O)N(C)c2cnc(Nc3ccc(C(=O)NC4CCN(C)CC4)cc3OC)nc2N1C1CCCC1 assigned_category="not satisfied"
molecule=NC1(c2ccc(-c3nc4ccn5c(=O)[nH]nc5c4cc3-c3ccccc3)cc2)CCC1 assigned_category="not satisfied"
molecule=Cc1nc(Nc2ncc(C(=O)Nc3c(C)cccc3Cl)s2)cc(N2CCN(CCO)CC2)n1 assigned_category=satisfied

Now consider the entry below.
## Input Quick check: does `Cc1cc(Nc2cc(N3CCN(C)CC3)nc(Sc3ccc(NC(=O)C4CC4)cc3)n2)n[nH]1` have log2 fold change greater than or equal to -0.02?
## Output satisfied

###

target: ZFAND6 (UniProt Q6FIF0); test: log2 fold change, soluble protein after heating vs DMSO (PISA); higher = thermal stabilisation; K562 cells, 10 uM, 30 min; active = over 0.2 and 3.5 SD of the protein, either way, in both replicates (recomputed)
Sequence (Q6FIF0 whole entry, looked up): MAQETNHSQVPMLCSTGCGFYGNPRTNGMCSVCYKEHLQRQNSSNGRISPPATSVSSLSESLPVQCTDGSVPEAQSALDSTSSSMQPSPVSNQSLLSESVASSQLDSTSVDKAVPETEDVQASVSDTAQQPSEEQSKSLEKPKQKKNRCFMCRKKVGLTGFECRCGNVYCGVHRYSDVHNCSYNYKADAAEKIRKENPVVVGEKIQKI
About 7,900 targets were measured; listed, in parts, are those with a hit and a random draw of the rest. About 0.6% of all pairs of compound and target were hits.
Returns 1.0 if the recorded log2 fold change is greater than or equal to -0.02, and 0.0 otherwise.

Example cases with answers are listed next.
compound=CC[C@H](C)[C@H](NC(=O)[C@H]([C@@H](C)CC)N(C)C(C)=O)C(=O)N[C@H](C(=O)N[C@@H](CC(C)C)C(=O)[C@@]1(C)CO1)[C@@H](C)O assigned_category=1.0
compound=Nc1ccccc1NC(=O)c1ccc(CNC(=O)OCc2cccnc2)cc1 assigned_category=1.0
compound=Cc1nc(Nc2n[nH]c3c2CN(C(=O)N[C@H](CN(C)C)c2ccccc2)C3(C)C)c2sccc2n1 assigned_category=1.0

## Input Quick check: does `Cc1ccc2c(=O)c3ccccc3n(CCCN)c2c1C` have log2 fold change greater than or equal to -0.02?
## Output 1.0

## Input // same read-out, input: `O=C1NC(=NCc2cccs2)S/C1=C\c1ccc2ncccc2c1`
## Output 1.0

## Input // same read-out, input: `COC(=O)N[C@@H](C)CNc1nccc(-c2cn(C(C)C)nc2-c2cc(Cl)cc(NS(C)(=O)=O)c2F)n1`
## Output 1.0

## Input // same read-out, input: `CC[C@@H]1C(=O)N(C)c2cnc(Nc3ccc(C(=O)NC4CCN(C)CC4)cc3OC)nc2N1C1CCCC1`
## Output 1.0

## Input // same read-out, input: `CN1CCC(CNc2ccc3ncc(-c4cccc(OC(F)(F)F)c4)n3n2)CC1`
## Output 0.0

## Input // same read-out, input: `C[C@@H](Oc1cc(-c2cnn(C3CCNCC3)c2)cnc1N)c1c(Cl)ccc(F)c1Cl`
## Output 0.0
